- test.protocol: NCI Yeast Anticancer Drug Screen. Data for the mlh1 strain (AID 171);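 further: 0% = growth of vehicle-treated control cultures of the same strain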
- condition.parameters: S. cerevisiae mlh1 strain growth inhibition; at 100.0 µM
About 79,000 compounds went through this panel and 15% of them were active in at least one assay; those are over-represented in the sample as a whole. Active and inactive are the calls of the source. No stated cut-off is given here; in the data, active means growth inhibition above about 70%; inactive means the rest.
Field 'call' accepts active, inactive

Please state the recorded outcome for this molecule: "CCCCCCc1cc(C(=O)OC/C(C)=N/NC(N)=O)c2ccccc2n1"
inactive

Please state the recorded outcome for this molecule: "NC(=NCc1ccccc1)N/N=C\c1ccnc2ccccc12"
inactive

Please state the recorded outcome for this molecule: "Cc1nc(-[n+]2nc(-c3ccncc3)nn2-c2ccccc2)sc1C"
active

Please state the recorded outcome for this molecule: "S=C(Nc1ccc(Cl)cc1)SC1CCCCC1"
active

Please state the recorded outcome for this molecule: "CC(C)/C(Cl)=N\OC(=O)Nc1ccc(F)cc1"
active

Please state the recorded outcome for this molecule: "S=C(Nc1ccc(Cl)c(Cl)c1)SCc1ccc2c(c1)OCO2"
active

Please state the recorded outcome for this molecule: "N#CN=Nc1cc(Cl)c(N=NC#N)cc1Cl"
active

Please state the recorded outcome for this molecule: "COP(=O)(OC)/C(=C\C1=CN(C(c2ccccc2)(c2ccccc2)c2ccccc2)CN1)NC=O"
active

Please state the recorded outcome for this molecule: "CC(=O)Oc1cc(-c2cc(OC(C)=O)c(OC(C)=O)c3ccccc23)c2ccccc2c1OC(C)=O"
active

Please state the recorded outcome for this molecule: "O=C(NCCCNCCCNC(=O)c1cc(-c2ccccc2)nc2ccccc12)c1cc(-c2ccccc2)nc2ccccc12"
inactive

Please state the recorded outcome for this molecule: "CCS(=O)(=O)c1ccc(/C=C/C=N/NC(=S)NCC(C)C)cc1"
inactive

----------
- test.protocol: NCI Yeast Anticancer Drug Screen. Data for the rad50EPP+ strain (AID 151);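 further: 0% = growth of vehicle-treated control cultures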
- condition.parameters: S. cerevisiae rad50 mutant strain, at 1.2 µM, stronger effect = higher value
About 79,000 compounds went through this panel and 15% of them were active in at least one assay; those are over-represented in the sample as a whole.
test.readout: growth inhibition (%)
Numbers only; they are read as %.

What does the data say about its growth inhibition? Entry: "O=[N+]([O-])c1cc(CCl)ccc1CCl"
16

What does the data say about its growth inhibition? Entry: "C[C@@H]1C[C@H]2[C@@H]3CCC4=CC(=O)C=C[C@]4(C)[C@@]3(Cl)[C@@H](Cl)C[C@]2(C)[C@@]1(O)C(=O)COP(=O)(O)O"
-3

What does the data say about its growth inhibition? Entry: "CC(=O)SCCC[Si](C)(C)CCCSC(C)=O"
-3

----------
Kindly state growth inhibition for each of the entries shown.
- test.protocol: NCI Yeast Anticancer Drug Screen. Data for the cln2 rad14 strain (AID 165);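 further: 0% = growth equal to vehicle treated cultures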
- condition.parameters: S. cerevisiae cln2 rad14 strain, at 50.0 µM, stronger effect = higher value
Compounds without any hit were thinned out: in the full panel of roughly 79,000, 15% have a hit.
Numbers only; they are read as %.

What does the data say about its growth inhibition? Entry: "CC[C@@]1(O)C(=O)OCc2c1cc1n(c2=O)Cc2cc3c(CN(C)C)c(O)ccc3nc2-1"
-5.5

What does the data say about its growth inhibition? Entry: "BrCc1cccc2ccc3cccc(CBr)c3c12"
-24

What does the data say about its growth inhibition? Entry: Cc1ccc(C2C(Cl)C(=O)N2n2cnc3ccccc3c2=O)cc1 (stereo not drawn)
6.4

----------
- test.protocol: NCI Yeast Anticancer Drug Screen. Data for the rad52 strain (AID 147);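 further: 0% = growth of vehicle-treated control cultures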
- condition.parameters: S. cerevisiae rad52 mutant growth inhibition; at 1.2 µM; stronger effect = higher value
About 79,000 compounds went through this panel and 15% of them were active in at least one assay; those are over-represented in the sample as a whole.
test.readout: growth inhibition (%)
Numbers only; they are read as %.

What does the data say about its growth inhibition? Entry: "COCCOC(=O)CCn1cc(F)c(=O)[nH]c1=O"
-1

What does the data say about its growth inhibition? Entry: "O=C(Nc1ccc(Cl)cc1)OCC#CCCl"
5

What does the data say about its growth inhibition? Entry: "C[C@@H]1C[C@H]2[C@@H]3CCC4=CC(=O)C=C[C@]4(C)[C@@]3(Cl)[C@@H](Cl)C[C@]2(C)[C@@]1(O)C(=O)COP(=O)(O)O"
-1

What does the data say about its growth inhibition? Entry: O=C(O)C1OC1(c1cccc(Cl)c1)c1ccccc1Cl (stereo not given)
-9

What does the data say about its growth inhibition? Entry: "N#Cc1c(N)[nH]c2ccc(Sc3ccccc3)cc12"
1
